# experimental_system: T1, Spirochaeta thermophila YeeE (Spirochaeta thermophila, UniProt G0GAP6 1-328)
# T1 sequence (looked up): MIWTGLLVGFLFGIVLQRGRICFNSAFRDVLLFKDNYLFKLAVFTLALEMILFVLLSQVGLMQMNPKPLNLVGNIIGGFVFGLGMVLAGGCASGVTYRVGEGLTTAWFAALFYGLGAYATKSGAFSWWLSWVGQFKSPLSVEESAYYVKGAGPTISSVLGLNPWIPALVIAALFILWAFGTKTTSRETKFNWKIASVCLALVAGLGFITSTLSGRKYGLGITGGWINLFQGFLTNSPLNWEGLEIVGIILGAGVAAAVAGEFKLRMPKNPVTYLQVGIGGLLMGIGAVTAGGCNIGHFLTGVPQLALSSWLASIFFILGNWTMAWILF
# method: BLI
observed_property: Kd (nM)
Quick reminder: number only, in nM, skip the unit.

Value of measured Kd for the entry Spirochaeta thermophila YeeD, His-tagged, wild type (natural protein, UniProt G0GAP7 1-80, looked up) MANYQVSKEIDVRGEVCPIPDVEAKRAVQSANDGEIILVRIDYPLSKERIPETVKKLGSEVLEIEEAAPGEWNIYIKVKK : 1600

meta.source: paper doi:10.1101/2023.07.28.550924
